- Measurement target: human α-thrombin (Homo sapiens, UniProt P00734)
- Construct: proteolysis of the B-chain of α-thrombin; human α-thrombin-catalyzed hydrolysis of Spectrozyme TH
- Assay protocol: Thrombin-catalyzed hydrolysis of Spectrozyme TH
- Assay type: biochemical
- Study conditions: method of Example 9, Spectrozyme TH; read-out: Ki
pKi: −log10 of the molar value.
Metric name: pKi

Substance: N-acetyl-Gly-Asp-phe-Leu-Ala-Glu-(Gly)3 -Val-Arg-Pro-(Gly)4 -Asn-Gly-Asp-Phe-Glu-Glu-Ile-Pro-Glu-Glu-Tyr-Leu-OH [Hirulog-33]
Measurement target: human α-thrombin (Homo sapiens, UniProt P00734)
Numeric value: 8.44
